# target under test: T1, human glycophorin A on human red blood cells or red blood cell membranes (human, UniProt P02724 20-150)
# T1 construct: whole, on cells; also called hRBC; human RBC membranes
# T1 sequence (looked up): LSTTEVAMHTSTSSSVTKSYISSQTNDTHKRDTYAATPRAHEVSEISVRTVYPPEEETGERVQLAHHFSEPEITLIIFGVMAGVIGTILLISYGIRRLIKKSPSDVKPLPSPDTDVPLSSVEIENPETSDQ
# method notes: SPR (Biacore), Fab on human RBC membranes;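 also: human RBC membranes captured on an L1 sensor chip, Fab fragments passed over as analyte, binding kinetics read by surface plasmon resonance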
In this section we review reported koff values for a set of binders.

binder	value unit	koff
TPP-7796, affinity matured 6C12 Fab (Fab, V domains shown, Tested as Fab) VH: EVQLVQSGAEVKKPGASVKVSCKASGYTFTTYTIHWVRQAPGQGLEWMGYINPKSGWTRYNPKFKGRVTMTRDKSTSTAYMELRSLRSDDTAVYYCQTGTRDYWGQGTTVTVSS VL: DIQLTQSPSFLSASVGDRVTITCRASSSVSYIYWFQQKPGKAPKLLIYATSTLQSGVPSRFSGSGSGTEYTLTISSLQPEDFATYYCHQRNSFPYTFGQGTKLEIK	s⁻¹	0.00238
TPP-7787, affinity matured 6C12 Fab (Fab, V domains shown, Tested as Fab) VH: EVQLVQSGAEVKKPGASVKVSCKASGYTFTTYAIHWVRQAPGQGLEWMGYINPSSGYTRYNPKFKGRVTMTRDKSTSTAYMELRSLRSDDTAVYYCWTGTRDYWGQGTTVTVSS VL: DIQLTQSPSFLSASVGDRVTITCRASSSVSYIYWFQQKPGKAPKLLIYATSTRQSGVPSRFSGSGSGTEYTLTISSLQPEDFATYYCHQRNSFPYTFGQGTKLEIK	s⁻¹	0.000139
